# Species: Rattus norvegicus
# assay-comment: Open TG-GATES - Regimen: Single
# Type: toxicity, organism-based, Sprague-Dawley
# Set-up: regimen Single, gender Male, age 6 weeks
# settings: in vivo, po, 100 mg/kg, 9 h, tissue Kidney, route gavage, dose level Low
Hi there, I'd appreciate the recorded KIDNEY_L for every entry that follows.
Answers are plain numbers, in g.

Examples with their reported KIDNEY_L follow.
CNC(=C[N+](=O)[O-])NCCSCc1ccc(CN(C)C)o1 : 1
CN/C(=N/CCSCc1nc[nH]c1C)NC#N : 1
O=C(OC[C@H]1O[C@@H](OC(=O)c2cc(O)c(O)c(OC(=O)c3cc(O)c(O)c(O)c3)c2)[C@H](OC(=O)c2cc(O)c(O)c(OC(=O)c3cc(O)c(O)c(O)c3)c2)[C@@H](OC(=O)c2cc(O)c(O)c(OC(=O)c3cc(O)c(O)c(O)c3)c2)[C@@H]1OC(=O)c1cc(O)c(O)c(OC(=O)c2cc(O)c(O)c(O)c2)c1)c1cc(O)c(O)c(OC(=O)c2cc(O)c(O)c(O)c2)c1 : 0.8
Cc1nnc2n1-c1ccc(Cl)cc1C(c1ccccc1Cl)=NC2 : 0.9

Field: next compound
**Q:** Which value of KIDNEY_L has been reported for COC(=O)C1=C(C)NC(C)=C(C(=O)OC)C1c1ccccc1[N+](=O)[O-] in the records?
**A:** 0.9

---

# Species on record: Rattus norvegicus
# assay-comment: Open TG-GATES - Regimen: Daily Repeat
# Type: toxicity, organism-based, Sprague-Dawley
# Design: regimen Daily Repeat, gender Male, age 6 weeks
# settings: in vivo, po, 100 mg/kg, […], tissue Plasma, route gavage, dose level Low, time 7 day
Hi there, I'd appreciate the recorded K for every entry that follows.
Enter the number, and then the unit.

Cc1nnc2n1-c1ccc(Cl)cc1C(c1ccccc1Cl)=NC2 : 4.2 meq/L
CCOc1ccc(NC(C)=O)cc1 : 4.3 meq/L
COC(=O)C1=C(C)NC(C)=C(C(=O)OC)C1c1ccccc1[N+](=O)[O-] : 4.2 meq/L
O=C(OC[C@H]1O[C@@H](OC(=O)c2cc(O)c(O)c(OC(=O)c3cc(O)c(O)c(O)c3)c2)[C@H](OC(=O)c2cc(O)c(O)c(OC(=O)c3cc(O)c(O)c(O)c3)c2)[C@@H](OC(=O)c2cc(O)c(O)c(OC(=O)c3cc(O)c(O)c(O)c3)c2)[C@@H]1OC(=O)c1cc(O)c(O)c(OC(=O)c2cc(O)c(O)c(O)c2)c1)c1cc(O)c(O)c(OC(=O)c2cc(O)c(O)c(O)c2)c1 : 4.3 meq/L
CNC(=C[N+](=O)[O-])NCCSCc1ccc(CN(C)C)o1 : 3.9 meq/L

Field: next compound
**Q:** Which value of K has been reported for CN/C(=N/CCSCc1nc[nH]c1C)NC#N in the records?
**A:** 4 meq/L

---

# Organism: Rattus norvegicus
# assay-comment: Open TG-GATES - Regimen: Daily Repeat
# Assay type: toxicity, organism-based, Sprague-Dawley
# Design: regimen Daily Repeat, gender Male, age 6 weeks
# settings: in vivo, po, 0 mg/kg, […], tissue Plasma, route gavage, dose level Control, time 7 day
Hi there, I'd appreciate the recorded gamma-GTP for every entry that follows.
Give bare numbers, in IU/L.

Would you mind listing gamma-GTP for each of the following compounds?
1. CNC(=C[N+](=O)[O-])NCCSCc1ccc(CN(C)C)o1
2. NC1=NC(=O)C(c2ccccc2)O1 (stereo not drawn)
3. CC(C)NNC(=O)c1ccncc1

**A:**
[1, 1, 1.2]

---

# Species: Rattus norvegicus
# assay-comment: Open TG-GATES - Regimen: Single
# Type: toxicity, organism-based, Sprague-Dawley
# Set-up: regimen Single, gender Male, age 6 weeks
# settings: in vivo, po, 300 mg/kg, 24 h, tissue Plasma, route gavage, dose level Middle
measured-parameter: BUN (mg/dL)
Give bare numbers, in mg/dL.

Examples with their reported BUN follow.
O=C(OC[C@H]1O[C@@H](OC(=O)c2cc(O)c(O)c(OC(=O)c3cc(O)c(O)c(O)c3)c2)[C@H](OC(=O)c2cc(O)c(O)c(OC(=O)c3cc(O)c(O)c(O)c3)c2)[C@@H](OC(=O)c2cc(O)c(O)c(OC(=O)c3cc(O)c(O)c(O)c3)c2)[C@@H]1OC(=O)c1cc(O)c(O)c(OC(=O)c2cc(O)c(O)c(O)c2)c1)c1cc(O)c(O)c(OC(=O)c2cc(O)c(O)c(O)c2)c1 : 18.4
CNC(=C[N+](=O)[O-])NCCSCc1ccc(CN(C)C)o1 : 15.8
COC(=O)C1=C(C)NC(C)=C(C(=O)OC)C1c1ccccc1[N+](=O)[O-] : 12
CN/C(=N/CCSCc1nc[nH]c1C)NC#N : 15.4

Field: next compound
**Q:** Which value of BUN has been reported for Cc1nnc2n1-c1ccc(Cl)cc1C(c1ccccc1Cl)=NC2 in the records?
**A:** 11.8

---

# Organism: Rattus norvegicus
# assay-comment: Open TG-GATES - Regimen: Single
# Type: toxicity, organism-based, Sprague-Dawley
# Set-up: regimen Single, gender Male, age 6 weeks
# settings: in vivo, po, 1000 mg/kg, 6 h, tissue Blood, route gavage, dose level High
measured-parameter: Bas (%)
Give bare numbers, in %.

Examples with their reported Bas follow.
Cc1nnc2n1-c1ccc(Cl)cc1C(c1ccccc1Cl)=NC2 [TRIAZOLAM] : 0
COC(=O)C1=C(C)NC(C)=C(C(=O)OC)C1c1ccccc1[N+](=O)[O-] [NIFEDIPINE] : 0.2
O=C(OC[C@H]1O[C@@H](OC(=O)c2cc(O)c(O)c(OC(=O)c3cc(O)c(O)c(O)c3)c2)[C@H](OC(=O)c2cc(O)c(O)c(OC(=O)c3cc(O)c(O)c(O)c3)c2)[C@@H](OC(=O)c2cc(O)c(O)c(OC(=O)c3cc(O)c(O)c(O)c3)c2)[C@@H]1OC(=O)c1cc(O)c(O)c(OC(=O)c2cc(O)c(O)c(O)c2)c1)c1cc(O)c(O)c(OC(=O)c2cc(O)c(O)c(O)c2)c1 [TANNIC ACID] : 0
CNC(=C[N+](=O)[O-])NCCSCc1ccc(CN(C)C)o1 [RANITIDINE] : 0

Field: next compound
**Q:** Which value of Bas has been reported for CN/C(=N/CCSCc1nc[nH]c1C)NC#N [CIMETIDINE] in the records?
**A:** 0

---

# Organism: Rattus norvegicus
# assay-comment: Open TG-GATES - Regimen: Daily Repeat
# Format: toxicity, organism-based, Sprague-Dawley
# Set-up: regimen Daily Repeat, gender Male, age 6 weeks
# settings: in vivo, po, 300 mg/kg, […], tissue Blood, route gavage, dose level Middle, time 28 day
measured-parameter: Plat (x10_4/uL)
One number for each entry, in x10_4/uL.

Examples with their reported Plat follow.
CNC(=C[N+](=O)[O-])NCCSCc1ccc(CN(C)C)o1 : 110
COC(=O)C1=C(C)NC(C)=C(C(=O)OC)C1c1ccccc1[N+](=O)[O-] : 123.7
CN/C(=N/CCSCc1nc[nH]c1C)NC#N : 108.2
O=C(OC[C@H]1O[C@@H](OC(=O)c2cc(O)c(O)c(OC(=O)c3cc(O)c(O)c(O)c3)c2)[C@H](OC(=O)c2cc(O)c(O)c(OC(=O)c3cc(O)c(O)c(O)c3)c2)[C@@H](OC(=O)c2cc(O)c(O)c(OC(=O)c3cc(O)c(O)c(O)c3)c2)[C@@H]1OC(=O)c1cc(O)c(O)c(OC(=O)c2cc(O)c(O)c(O)c2)c1)c1cc(O)c(O)c(OC(=O)c2cc(O)c(O)c(O)c2)c1 : 113.3

Would you mind listing Plat for each of the following molecules?
1. Cc1nnc2n1-c1ccc(Cl)cc1C(c1ccccc1Cl)=NC2
2. CCOc1ccc(NC(C)=O)cc1

**A:**
106.2
103.8

---

# Species on record: Rattus norvegicus
# assay-comment: Open TG-GATES - Regimen: Daily Repeat
# Type: toxicity, organism-based, Sprague-Dawley
# Set-up: regimen Daily Repeat, gender Male, age 6 weeks
# settings: in vivo, po, 0 mg/kg, […], tissue Kidney, route gavage, dose level Control, time 14 day
Hi there, I'd appreciate the recorded KIDNEY_R for every entry that follows.

Nc1c2c(nc3ccccc13)CCCC2 [TACRINE] : 1.2 g

Would you mind listing KIDNEY_R for each of the following compounds?
1. CN1C(=O)CCS(=O)(=O)C1c1ccc(Cl)cc1 (stereo unspecified) [CHLORMEZANONE]
2. CNC(=C[N+](=O)[O-])NCCSCc1ccc(CN(C)C)o1 [RANITIDINE]
3. Cc1nnc2n1-c1ccc(Cl)cc1C(c1ccccc1Cl)=NC2 [TRIAZOLAM]
4. NC1=NC(=O)C(c2ccccc2)O1 (stereo unspecified) [PEMOLINE]
5. CCCc1cc(=O)[nH]c(=S)[nH]1 [PROPYLTHIOURACIL]
6. CCOc1ccc(NC(C)=O)cc1 [PHENACETIN]
7. COC(=O)C1=C(C)NC(C)=C(C(=O)OC)C1c1ccccc1[N+](=O)[O-] [NIFEDIPINE]
8. Brc1ccccc1 [BROMOBENZENE]

**A:**
["1.1 g", "1.2 g", "1.2 g", "1.3 g", "1.1 g", "1.3 g", "1.2 g", "1.1 g"]

Would you mind listing KIDNEY_R for each of the following compounds?
1. CN/C(=N/CCSCc1nc[nH]c1C)NC#N [CIMETIDINE]
2. CN(C)CCC(c1ccc(Cl)cc1)c1ccccn1 (stereo unspecified) [CHLORPHENIRAMINE]

**A:**
1.2 g
1.1 g
